# assayTarget: T1, human CD24 (human, UniProt P25063 27-59, heavily glycosylated, GPI-anchored (as described in the background))
# T1 construct: whole, on cells; Target of all cell-based FACS assays; also called hCD24; Cluster of differentiation 24
# T1 chain (looked up): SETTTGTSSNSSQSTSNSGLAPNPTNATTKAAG
# protocolText: FACS, CHOK1-hCD24 cells
propertyLabel: pEC50
Reminder that pEC50 means the negative base-10 logarithm of the concentration expressed in mol/L.

[[record]]
binder = "SN3 (antibody, V domains shown) VH: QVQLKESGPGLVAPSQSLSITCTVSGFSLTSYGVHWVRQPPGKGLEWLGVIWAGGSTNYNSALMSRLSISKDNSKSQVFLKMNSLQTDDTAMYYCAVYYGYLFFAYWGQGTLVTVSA VL: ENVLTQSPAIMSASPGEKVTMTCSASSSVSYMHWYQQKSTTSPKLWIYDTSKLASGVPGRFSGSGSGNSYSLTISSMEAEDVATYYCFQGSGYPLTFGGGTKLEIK"
testvalue = 8.44


Okay, next one:
Sample ch81A1F8-hIgG4 (antibody, V domains shown, chimeric; also called chAb81A1F8; ch81A1F8-IgG4) VH: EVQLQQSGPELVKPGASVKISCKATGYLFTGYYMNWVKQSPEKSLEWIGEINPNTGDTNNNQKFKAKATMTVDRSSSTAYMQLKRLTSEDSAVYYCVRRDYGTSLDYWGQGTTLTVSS VL: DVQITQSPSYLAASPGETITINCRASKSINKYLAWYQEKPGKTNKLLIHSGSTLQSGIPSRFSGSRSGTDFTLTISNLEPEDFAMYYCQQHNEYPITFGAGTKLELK ; pEC50 observed: 5.49

Data origin, for the record: patent US20240052052A1
